From: patent US10660836B2

test method notes: Transparency (no crystallization or gelation) of 12-hydroxystearic acid compositions after manufacturing, visual inspection
Type: physicochemical
Design: key: C: a substantially transparent or transparent composition for at least three (3) months after manufacturing; X: an opaque (non-transparent, non-translucent) composition inconsistent with the claimed compositions of this invention and where benefit agent crystallization or composition gelation is almost immediately observed
test context: 3% SBA/97% Solvent; SBA = 12-hydroxystearic acid
measured metric: Transparency of composition

compound="CC(O)CO (stereo not shown)" result=X

* * *

test method notes: Transparency (no crystallization or gelation) of 12-hydroxystearic acid compositions after manufacturing, visual inspection
Format: physicochemical
Design: key: C: a substantially transparent or transparent composition for at least three (3) months after manufacturing; X: an opaque (non-transparent, non-translucent) composition inconsistent with the claimed compositions of this invention and where benefit agent crystallization or composition gelation is almost immediately observed
test context: 3% SBA/97% Solvent; SBA = 12-hydroxystearic acid
measured metric: Transparency of composition

molecule=OCCCCO result=X
